# System: diaphorase
# ASSAY_TEXT: Formation of formazan dyes: NADH and diaphorase, absence of malate (TABLE 7)
# Assay type: biochemical, Clostridium kluyveri
# STUDY_CONDITIONS: NADH and diaphorase, absence of malate; 3 h
MEASURED_ENDPOINT: Formation of formazan dyes, absorbance, Means 3 h
Give the figure by itself; no unit, no explanation.

*Q* Provide Formation of formazan dyes, absorbance, Means 3 h, tested on diaphorase, for COc1cc(-c2ccc(-[n+]3nc(-c4ccc(C(=O)N(CCS(=O)(=O)[O-])CCS(=O)(=O)[O-])cc4)nn3-c3nc4ccccc4s3)c(OC)c2)ccc1-[n+]1nc(-c2ccc(C(=O)N(CCS(=O)(=O)[O-])CCS(=O)(=O)[O-])cc2)nn1-c1nc2ccccc2s1.[Na+].[Na+] [WST-5] .
*A* 2.78

*Q* Provide Formation of formazan dyes, absorbance, Means 3 h, tested on diaphorase, for O=[N+]([O-])c1ccc(-[n+]2nc(-c3ccc(S(=O)(=O)[O-])cc3S(=O)(=O)[O-])nn2-c2ccc(I)cc2)cc1.[Na+] [WST-1] .
*A* 3.60

*Q* Provide Formation of formazan dyes, absorbance, Means 3 h, tested on diaphorase, for COc1cc([N+](=O)[O-])ccc1-[n+]1nc(-c2ccc(S(=O)(=O)[O-])cc2S(=O)(=O)[O-])nn1-c1ccc([N+](=O)[O-])cc1.[Na+] [WST-8] .
*A* 3.77

*Q* Provide Formation of formazan dyes, absorbance, Means 3 h, tested on diaphorase, for Cc1nc(-[n+]2nc(-c3cccc(OCC(=O)O)c3)nn2-c2ccc(S(=O)(=O)[O-])cc2)sc1C [MTS] .
*A* 3.20

*Q* Provide Formation of formazan dyes, absorbance, Means 3 h, tested on diaphorase, for COc1cc([N+](=O)[O-])c(S(=O)(=O)[O-])cc1-n1nc(C(=O)Nc2ccccc2)n[n+]1-c1cc(S(=O)(=O)O)c([N+](=O)[O-])cc1OC [XTT] .
*A* 2.32
